experimental.target: h-5-HT-T (Homo sapiens, UniProt P31645)
Sequence (P31645 whole entry): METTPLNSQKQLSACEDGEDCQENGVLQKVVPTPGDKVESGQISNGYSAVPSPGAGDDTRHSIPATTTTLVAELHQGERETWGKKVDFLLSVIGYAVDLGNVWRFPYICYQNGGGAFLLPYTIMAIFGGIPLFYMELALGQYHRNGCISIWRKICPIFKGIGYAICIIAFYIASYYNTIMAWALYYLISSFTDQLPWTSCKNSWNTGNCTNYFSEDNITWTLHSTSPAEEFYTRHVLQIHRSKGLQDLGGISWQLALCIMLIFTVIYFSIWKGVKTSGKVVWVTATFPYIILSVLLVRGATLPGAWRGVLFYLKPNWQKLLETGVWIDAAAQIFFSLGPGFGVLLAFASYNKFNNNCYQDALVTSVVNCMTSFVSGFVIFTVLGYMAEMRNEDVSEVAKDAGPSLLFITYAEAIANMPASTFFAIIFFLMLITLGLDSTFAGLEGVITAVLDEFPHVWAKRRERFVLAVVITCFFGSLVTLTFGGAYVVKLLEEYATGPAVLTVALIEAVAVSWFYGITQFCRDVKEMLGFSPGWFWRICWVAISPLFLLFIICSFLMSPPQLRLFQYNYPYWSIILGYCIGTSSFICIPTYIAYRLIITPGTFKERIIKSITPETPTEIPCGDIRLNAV
pIC50: −log10 of the molar value. Where a name gives a salt, the structure may show the parent alone.
Entries annotated with measured pIC50

compound	pIC50
Cc1ccc2c3c(ccc2n1)OC[C@H](CN(CC1CCc2c(c4cc(F)ccc4n2C)C1)C1CCCC1)O3 (stereo partly shown) [Example 66, monohydrochloride monohydrate]	7.21
Cc1ccc2c3c(ccc2n1)OC[C@H](CN(CC1CC1)C[C@@H]1CCc2[nH]c4ccc(F)cc4c2C1)O3 [Example 55, dihydrochloride dihydrate]	8.07
Cc1ccc2c3c(ccc2n1)OC[C@H](CN(C)C[C@@H]1CCc2c(c4cc(F)ccc4n2C)C1)O3 [Example 69, monohydrochloride monohydrate]	7.45
CCCN(C[C@@H]1CCc2[nH]c3ccc(F)cc3c2C1)C[C@H]1COc2ccc3nc(C)ccc3c2O1 [Example 54, dihydrochloride dihydrate]	7.78
